Overview of recorded Final um, Before φ for various molecules
# Experiment notes: aggregation and purification amounts of deglycosylated antibodies, before and after φ
# Format: physicochemical
# Recorded conditions: based on 100 ml culture
Result type: Final um, Before φ

Molecule | Recorded measurement
Deglyco-C2: deglycosylated clone 1 IgG; light chain CDR1 TGSSSNIGATAVT (SEQ ID NO: 3) (antibody, V domains shown) VH: EVQLVESGGGLVQPGGSLRLSCAVSGFTFSGYDMSWIRQAPGKGLEWVAGIYPDGGNTYYADSVKGRFTISRDDSKNTFYLQMNSLRAEDTAVYYCARGATWWVLGPFDYWGQGTLVTVSS VL: DIQLTQSPSSLSASVGDRVTITCTGSSSNIGATAVTWYQQKPGKAPKLLIYADSHRPSGVPSRFSGSGSGTDFTLTISSLQPEDFATYYCGAWDDSLSGYVFGQGTKVEIKR | 5.032 mg
Deglyco-C4: deglycosylated clone 1 IgG; light chain CDR1 TGSSSNIGAVVVT (SEQ ID NO: 5) (antibody, V domains shown) VH: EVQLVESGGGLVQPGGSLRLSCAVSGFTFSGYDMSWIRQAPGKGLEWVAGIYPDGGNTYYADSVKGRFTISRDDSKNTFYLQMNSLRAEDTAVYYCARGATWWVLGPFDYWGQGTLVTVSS VL: DIQLTQSPSSLSASVGDRVTITCTGSSSNIGAVVVTWYQQKPGKAPKLLIYADSHRPSGVPSRFSGSGSGTDFTLTISSLQPEDFATYYCGAWDDSLSGYVFGQGTKVEIKR | 1.390 mg
Deglyco-C3: deglycosylated clone 1 IgG; light chain CDR1 TGSSSNIGWSNVT (SEQ ID NO: 4) (antibody, V domains shown) VH: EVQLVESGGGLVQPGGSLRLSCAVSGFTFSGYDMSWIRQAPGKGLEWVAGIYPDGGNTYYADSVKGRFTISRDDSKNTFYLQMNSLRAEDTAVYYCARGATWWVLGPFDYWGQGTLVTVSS VL: DIQLTQSPSSLSASVGDRVTITCTGSSSNIGWSNVTWYQQKPGKAPKLLIYADSHRPSGVPSRFSGSGSGTDFTLTISSLQPEDFATYYCGAWDDSLSGYVFGQGTKVEIKR | 2.918 mg
